Test: Abuse potential main study: plasma pharmacokinetics after a single oral dose
Type: in vivo, human
Settings: human, plasma; 30 mg single oral dose; read-out: AUC0-24, geometric mean

>  <structure smiles>
C[C@@]1(O)CC[C@H]2[C@H](CC[C@@H]3[C@@H]2CC[C@]2(C)[C@@H](C(=O)Cn4cc(C#N)cn4)CC[C@@H]32)C1

>  <AUC(0-t), ng·h/mL>
520

$$$$

---

Assay: Abuse potential main study: plasma pharmacokinetics after a single oral dose
Type: in vivo, human
Conditions: human, plasma, po, 60 mg, 60 mg single oral dose (n = 60); read-out: T½, geometric mean (converted)
readout label: half-life (h)

>  <compound>
C[C@@]1(O)CC[C@H]2[C@H](CC[C@@H]3[C@@H]2CC[C@]2(C)[C@@H](C(=O)Cn4cc(C#N)cn4)CC[C@@H]32)C1 [Compound (1)]

>  <quantitative readout>
9.9

$$$$

---

Assay: Abuse potential main study: plasma pharmacokinetics after a single oral dose
Assay type: in vivo, human
Conditions: human, plasma; 30 mg single oral dose (n = 65); read-out: Cmax, geometric mean

>  <structure smiles>
C[C@@]1(O)CC[C@H]2[C@H](CC[C@@H]3[C@@H]2CC[C@]2(C)[C@@H](C(=O)Cn4cc(C#N)cn4)CC[C@@H]32)C1

>  <reading unit>
ng/mL

>  <Cmax>
55.5

$$$$

---

Test: Abuse potential main study: plasma pharmacokinetics after a single oral dose
Type: in vivo, human
Conditions: human, plasma; 90 mg single oral dose (n = 67); read-out: Cmax, geometric mean
readout label: Cmax (ng/mL)

>  <molecule>
C[C@@]1(O)CC[C@H]2[C@H](CC[C@@H]3[C@@H]2CC[C@]2(C)[C@@H](C(=O)Cn4cc(C#N)cn4)CC[C@@H]32)C1 [Compound (1)]

>  <readout label>
Cmax

>  <quantitative readout>
123

$$$$

---

Assay: Abuse potential main study: plasma pharmacokinetics after a single oral dose
Assay type: in vivo, human
Conditions: human, plasma, oral; 30, 60, 90 mg; read-out: Cmax geometric mean values, range over doses
Protocol: Safety and tolerability endpoints included the frequency and severity of AEs and SAEs, the change from baseline in clinical laboratory assessments, vital signs, and ECG, and suicidality assessed by the Columbia-Suicide Severity Rating Scale (C-SSRS). During the treatment phase, PK measures were assessed predose and at multiple time points, from 0.5 to 24 hours after dosing. Blood samples collected for plasma analyses were kept frozen (approximately −70° C. to −80° C.) until analysis. […]
readout label: Cmax

>  <structure smiles>
C[C@@]1(O)CC[C@H]2[C@H](CC[C@@H]3[C@@H]2CC[C@]2(C)[C@@H](C(=O)Cn4cc(C#N)cn4)CC[C@@H]32)C1

>  <readout label>
Cmax

>  <result>
55.5 to 123 ng/mL

$$$$

---

Assay: Abuse potential main study: plasma pharmacokinetics after a single oral dose
Type: in vivo, human
Conditions: human, plasma, oral, 90 mg, 30, 60, 90 mg; capsule; read-out: T½ values, range over doses
readout label: half-life

>  <structure smiles>
C[C@@]1(O)CC[C@H]2[C@H](CC[C@@H]3[C@@H]2CC[C@]2(C)[C@@H](C(=O)Cn4cc(C#N)cn4)CC[C@@H]32)C1

>  <readout label>
half-life

>  <result>
9.92 to 10.9 h

$$$$
